Test system: Escherichia coli TOP10;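 note: peptides expressed intracellularly from a pBAD plasmid library in pooled LB shake-flask culture, induced with 0.3% L-arabinose, DNA abundance read by NGS, three biological replicates, DESeq2 with apeglm shrinkage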
experiment.summary: shrunken log2 fold change of peptide-encoding DNA abundance (4.5 h post-induction vs induction); higher = less antimicrobial activity (less host growth inhibition)
study.conditions: time post-induction: 4.5 h; library: site-saturation at positions 5, 18, 19, 20
Output: class label from shrunken log2 fold change. Mapping: class A: < -0.1; class B: ≥ -0.1 and < 0.1; class C: ≥ 0.1

For orientation, consider the following solved cases.
RRIRWRPPRLPRPRPRPGWHPRP: class C
RRIRPRPPRLPRPRPRPKFWPRP: class C
RRIRMRPPRLPRPRPRPARPPRP: class C

### Prompt Pick a category. Item: `RRIRQRPPRLPRPRPRPPKAPRP`
### Response class B

### Prompt Each sequence maps to one class by shrunken log2 fold change. Which class for `RRIRSRPPRLPRPRPRPMTTPRP` ?
### Response class C

### Prompt Categorize the following entry: `RRIRARPPRLPRPRPRPGDNPRP`
### Response class C

### Prompt Which category fits this record: `RRIRSRPPRLPRPRPRPCMYPRP`
### Response class B

### Prompt Field: class (shrunken log2 fold change) — entry: `RRIRDRPPRLPRPRPRPHDVPRP`
### Response class B

### Prompt Consider `RRIRNRPPRLPRPRPRPHIEPRP` . To which shrunken log2 fold change class does it belong?
### Response class A

### Prompt Please let me know in which category the item `RRIRQRPPRLPRPRPRPHYHPRP` belongs.
### Response class A

### Prompt Form field 'band' for `RRIRCRPPRLPRPRPRPWIIPRP`
### Response class A

### Prompt Band for `RRIRMRPPRLPRPRPRPYWAPRP` ?
### Response class B

### Prompt For `RRIRVRPPRLPRPRPRPYWIPRP` , which shrunken log2 fold change bin applies?
### Response class A

### Prompt Sort `RRIRKRPPRLPRPRPRPWYFPRP` into one of the categories.
### Response class B

### Prompt Determine which band this sequence sits in: `RRIRNRPPRLPRPRPRPHQSPRP`
### Response class A

### Prompt Kindly identify the class of `RRIRKRPPRLPRPRPRPMCFPRP` .
### Response class C
